Test system: NQO1 specific enzyme activity in BEAS-2B cells
TEST_DETAILS: BEAS-2B NQO1 MTT Assay
Type: cell-based
MEASUREMENT_PARAMETERS: Homo sapiens, BEAS-2B, 48 h, NQO1 specific activity induction
pEC50: −log10 of the molar value.
TEST_READOUT: pEC50

Cn1cc([C@@H]2C[C@H]2c2c(C(=O)O)cnn2-c2cccc(N3CCCC(CCC4CCCCC4)C3)c2)nn1 (stereo partly shown) : 8.00 to 9.00
O=C(O)c1cnn(-c2cccc(C3CCCC(C(=O)N4CCCCCC4)C3)c2)c1C1CC1 (stereo not shown) : 5.00 to 6.00
O=C(O)c1cnn(-c2cccc(C3CCCC(n4ncc5c4CCCC5)C3)c2)c1C1CC1 (racemic) : 5.00 to 6.00
Cn1cc(C2CC2c2c(C(=O)O)cnn2-c2cccc([C@@H]3CCC[C@H](n4ncc5c4C(C)(C)CC5)C3)c2)nn1 (stereo partly shown) : 6.00 to 7.00
CCCC[C@@H]1CCCN1C(=O)[C@H]1CCC[C@@H](c2cccc(-n3ncc(C(=O)O)c3C3CC3)c2)C1 [Example 17f] : 7.00 to 8.00

Just so you know, measured pEC50 for CCCC1CCc2cnn([C@@H]3CCC[C@H](c4cccc(-n5ncc(C(=O)O)c5C5CC5)c4)C3)c21 (mixture of isomers) came out at 5.00 to 6.00

Just so you know, measured pEC50 for CN(C)C(=O)[C@H]1CCC[C@@H](c2cccc(-n3ncc(C(=O)O)c3C3CC3)c2)C1 (racemic) came out at 5.00 to 6.00

meta.source: patent US10351530B2
